Source listed as ChEMBL document CHEMBL1139648.

test-details: Volume of distribution in rat at 3 mg/kg, iv or 5 mg/kg, po
Type: ADME, organism-based
assay-conditions: in vivo, read-out: Vdss
measured-attribute: Vd (L/kg)
Provide only the numeric value, understood in L/kg.

Given the compound CN[C@H]1CC[C@@H](c2ccc(Cl)c(Cl)c2)c2ccc(S(N)(=O)=O)cc21 , write its reported Vd.
19

---

test-details: Blood clearance in rat in CNS penetration assay at 3 mg/kg, iv or 5 mg/kg, po
Format: ADME, organism-based
assay-conditions: whole blood
measured-attribute: clearance

Given the compound CN[C@H]1CC[C@@H](c2ccc(Cl)c(Cl)c2)c2ccc(S(N)(=O)=O)cc21 , write its reported clearance.
60 mL/min/kg

---

test-details: Volume of distribution in rat at 1 mg/kg, iv or 1 mg/kg, po
Format: ADME, organism-based
assay-conditions: in vivo, read-out: Vdss
measured-attribute: Vd
# output: number + unit

Given the compound CN[C@H]1CC[C@@H](c2ccc(Cl)c(Cl)c2)c2ccccc21 , write its reported Vd.
52 L/kg

---

tested-target: UniProt P23975
Sequence (P23975 whole entry): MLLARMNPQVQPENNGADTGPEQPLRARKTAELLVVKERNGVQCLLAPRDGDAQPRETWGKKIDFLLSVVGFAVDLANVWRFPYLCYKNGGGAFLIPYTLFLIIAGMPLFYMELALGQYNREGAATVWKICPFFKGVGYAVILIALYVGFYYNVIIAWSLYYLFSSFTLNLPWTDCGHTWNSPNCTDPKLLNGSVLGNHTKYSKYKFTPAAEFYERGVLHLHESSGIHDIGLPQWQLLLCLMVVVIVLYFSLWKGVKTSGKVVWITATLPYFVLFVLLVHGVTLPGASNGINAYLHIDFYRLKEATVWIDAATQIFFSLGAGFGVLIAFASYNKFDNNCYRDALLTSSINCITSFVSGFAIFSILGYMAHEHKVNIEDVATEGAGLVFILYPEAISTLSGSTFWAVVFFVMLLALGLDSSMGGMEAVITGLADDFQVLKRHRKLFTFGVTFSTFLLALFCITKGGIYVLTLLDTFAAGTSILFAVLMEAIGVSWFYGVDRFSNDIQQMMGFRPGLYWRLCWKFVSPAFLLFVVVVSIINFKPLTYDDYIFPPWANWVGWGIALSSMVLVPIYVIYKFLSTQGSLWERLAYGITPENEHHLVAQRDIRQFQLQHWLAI
test-details: Inhibition of noradrenaline re-uptake at human noradrenaline transporter expressed in HEK293 cells
IC50 vs 900 nM: less than gives True; not less than gives False.

INSERT INTO measurements (molecule, category) VALUES
  ('CN[C@H]1CC[C@@H](c2ccc(Cl)c(Cl)c2)c2ccc(C(=O)OC)cc21', 'False'),
  ('CN[C@H]1CC[C@@H](c2ccc(Cl)c(Cl)c2)c2ccc(-n3cncn3)cc21', 'True'),
  ('CN[C@H]1CC[C@@H](c2ccc(Cl)c(Cl)c2)c2cc(C(=O)N(C)C)ccc21', 'False'),
  ('CN[C@H]1CC[C@@H](c2ccc(Cl)c(Cl)c2)c2ccc(NS(C)(=O)=O)cc21', 'True'),
  ('CN[C@H]1CC[C@@H](c2ccc(Cl)c(Cl)c2)c2ccc(S(=O)(=O)NC)cc21', 'False');

Does the reported IC50 of CN[C@H]1CC[C@@H](c2ccc(Cl)c(Cl)c2)c2cc([S+](C)[O-])ccc21 (some centres undefined) stay below 900 nM?
False

Does the reported IC50 of CN[C@H]1CC[C@@H](c2ccc(Cl)c(Cl)c2)c2ccc(-n3ccnn3)cc21 stay below 900 nM?
True

Does the reported IC50 of CN[C@H]1CC[C@@H](c2ccc(Cl)c(Cl)c2)c2ccc(S(N)(=O)=O)cc21 stay below 900 nM?
True

Does the reported IC50 of CN[C@H]1CC[C@@H](c2ccc(Cl)c(Cl)c2)c2cccc(C(N)=O)c21 stay below 900 nM?
False

Does the reported IC50 of CN[C@H]1CC[C@@H](c2ccc(Cl)c(Cl)c2)c2ccc([S+](C)[O-])cc21 (some centres undefined) stay below 900 nM?
False

Does the reported IC50 of CN[C@H]1CC[C@@H](c2ccc(Cl)c(Cl)c2)c2ccc(S(=O)(=O)NCCO)cc21 stay below 900 nM?
True

---

test-details: Half life in rat liver microsome
Format: ADME
assay-conditions: liver microsomes
measured-attribute: half-life (min)
Provide only the numeric value, understood in min.

Given the molecule CN[C@H]1CC[C@@H](c2ccc(Cl)c(Cl)c2)c2ccccc21 [SERTRALINE] , write its reported half-life.
23

---

test-details: Tmax in rat at 3 mg/kg, iv or 5 mg/kg, po
Format: ADME, organism-based
assay-conditions: in vivo
measured-attribute: Tmax (h)
Provide only the numeric value, understood in h.

Given the compound CN[C@H]1CC[C@@H](c2ccc(Cl)c(Cl)c2)c2ccc(S(N)(=O)=O)cc21 , write its reported Tmax.
1
